Sourced from ChEMBL document CHEMBL1143653

# procedureText: Steady-state volume of distribution in rat when administered intravenously at 4 mg/kg
# Assay type: ADME, organism-based
# Design: dose 4 mg/kg, route intravenous
# experimentalSetup: in vivo, iv, read-out: Vss
metricName: Vd
Note: state the figure and append the unit.

I would be grateful if you could share the reported Vd for Cc1cc(N2CCOCC2)cc2[nH]c(-c3c(NC[C@@H](O)c4cccc(Cl)c4)cc[nH]c3=O)nc12 .
0.8 L/kg

---

# procedureText: Total clearance in mouse when administered intravenously at 4 mg/kg
# Type: ADME, organism-based
# Parameters: dose 4 mg/kg, route intravenous
# experimentalSetup: in vivo, iv, read-out: CLtot
metricName: clearance (mL/min/kg)
Numeric answer only, unit mL/min/kg assumed.

Give its clearance value. Item: Cc1cc(N2CCOCC2)cc2[nH]c(-c3c(NC[C@@H](O)c4cccc(Cl)c4)cc[nH]c3=O)nc12
37.8

---

# procedureText: In vitro inhibitory concentration against Geo (colon) cell line with ATP concentration at 1/2Km
# Format: functional, Homo sapiens
metricName: IC50 (µM)
Supply the numeric figure in µM, leaving out any unit text.

Name the reported IC50 value associated with the compound Cc1cc(N2CCOCC2)cc2[nH]c(-c3c(NC[C@@H](O)c4cccc(Cl)c4)cc[nH]c3=O)nc12
0.32

---

# procedureText: Bioavailability in rat administered perorally at 50 mg/kg
# Type: ADME, organism-based
# experimentalSetup: in vivo, po
metricName: bioavailability

State the recorded bioavailability for this entry: Cc1cc(N2CCOCC2)cc2[nH]c(-c3c(NC[C@@H](O)c4cccc(Cl)c4)cc[nH]c3=O)nc12
> 100%

---

# procedureText: Total clearance in monkey at 2 mg/kg intravenous dose
# Type: ADME, organism-based
# Set-up: dose 2 mg/kg, route intravenous
# experimentalSetup: cercopithecidae, in vivo, read-out: CLtot
metricName: clearance (mL/min/kg)
Enter your answer as a number in mL/min/kg; do not include the unit.

Reported clearance for Cc1cc(N2CCOCC2)cc2[nH]c(-c3c(NC[C@@H](O)c4cccc(Cl)c4)cc[nH]c3=O)nc12 : what is it?
16.5

---

# procedureText: Maximum concentration in monkey administered orally at 5 mg/kg
# Assay type: ADME, organism-based
# Set-up: dose 5 mg/kg, route oral
# experimentalSetup: cercopithecidae, in vivo, po
metricName: Cmax (nM)
Only the number, expressed in nM, is required.

What value of Cmax has been reported for the following compound? Cc1cc(N2CCOCC2)cc2[nH]c(-c3c(NC[C@@H](O)c4cccc(Cl)c4)cc[nH]c3=O)nc12
1300

---

# procedureText: Steady-state volume of distribution in monkey when administered intravenously at 2 mg/kg
# Assay type: ADME, organism-based
# Parameters: dose 2 mg/kg, route intravenous
# experimentalSetup: cercopithecidae, in vivo, iv, read-out: Vss
metricName: Vd
Note to self: number, then unit, no commentary.

So what's the measured Vd for this one? Cc1cc(N2CCOCC2)cc2[nH]c(-c3c(NC[C@@H](O)c4cccc(Cl)c4)cc[nH]c3=O)nc12
1.4 L/kg

---

# procedureText: Maximum concentration in rat administered orally at 50 mg/kg
# Format: ADME, organism-based
# Set-up: dose 50 mg/kg, route oral
# experimentalSetup: in vivo, po
metricName: Cmax (µM)
// note: answer is a bare numeric in µM

Sample Cc1cc(N2CCOCC2)cc2[nH]c(-c3c(NC[C@@H](O)c4cccc(Cl)c4)cc[nH]c3=O)nc12 — what was its Cmax?
69
